Tested on: Streptococcus faecium
Protocol Notes: MIC, microtitration dilution method, S. faeci.
Type: cell-based
Test Context: Enterococcus faecium
Entries and their measured MIC follow.

Compound: CC1CN(c2nc3c(cc2F)c(=O)c(C(=O)O)cn3C(C)(C)C)CC1N (mixture of isomers)
Test Target: Streptococcus faecium
Unit Name: mg/L
MIC: 1
//
Compound: CC(C)(C)n1cc(C(=O)O)c(=O)c2cc(F)c(N3CC[C@@H](N)C3)nc21 [Example 45, METHANESULFONATE]
Test Target: Streptococcus faecium
Unit Name: mg/L
MIC: 1
//
Compound: CS(=O)(=O)O.C[C@@H]1CN(c2nc3c(cc2F)c(=O)c(C(=O)O)cn3C(C)(C)C)C[C@H]1N (relative stereo)
Test Target: Streptococcus faecium
Unit Name: mg/L
MIC: 0.5
//
Compound: O=C(O)c1cn(C2CC2)c2cc(N3CCNCC3)c(F)cc2c1=O [Cip., reference compound]
Test Target: Streptococcus faecium
Unit Name: mg/L
MIC: 8
//
Compound: C[C@H]1CN(c2nc3c(cc2F)c(=O)c(C(=O)O)cn3C(C)(C)C)C[C@H]1N (relative stereo)
Test Target: Streptococcus faecium
Unit Name: mg/L
MIC: 1
//
Compound: CC(C)(C)n1cc(C(=O)O)c(=O)c2cc(F)c(N3CCC(N)C3)nc21 (stereo not shown)
Test Target: Streptococcus faecium
Unit Name: mg/L
MIC: 1
//
Compound: CC(C)(C)n1cc(C(=O)O)c(=O)c2cc(F)c(N3CC[C@H](N)C3)nc21
Test Target: Streptococcus faecium
Unit Name: mg/L
MIC: 0.25

* * *

Protocol Notes: physchem
Test Context: water

Compound: CC(C)(C)n1cc(C(=O)O)c(=O)c2cc(F)c(N3C[C@H]4C[C@@H]3CN4)nc21 [Example 30]
solubility: 80 µg/mL

* * *

System: Escherichia coli
Protocol Notes: MIC, microtitration dilution method, E. coli
Assay type: cell-based
Test Context: Escherichia coli
Please use Criterion met for MIC under 0.06 µg/mL and Criterion not met for everything else, ties included.

Molecule: CS(=O)(=O)O.C[C@@H]1CN(c2nc3c(cc2F)c(=O)c(C(=O)O)cn3C(C)(C)C)C[C@H]1N (relative stereo)
Classification: Criterion met
//
Molecule: CC(C)(C)n1cc(C(=O)O)c(=O)c2cc(F)c(N3CCC(N)C3)nc21 (stereo not drawn)
Classification: Criterion not met
//
Molecule: C[C@H]1CN(c2nc3c(cc2F)c(=O)c(C(=O)O)cn3C(C)(C)C)C[C@H]1N (relative stereo)
Classification: Criterion not met
//
Molecule: CC1CN(c2nc3c(cc2F)c(=O)c(C(=O)O)cn3C(C)(C)C)CC1N (mixture of isomers)
Classification: Criterion met
//
Molecule: CC(C)(C)n1cc(C(=O)O)c(=O)c2cc(F)c(N3CC[C@H](N)C3)nc21
Classification: Criterion met
